assay_system: T1, Cbx7.V1 E33K back-mutant (human, UniProt O95931 7-66, E8D (printed as the back-mutation D8E) | Q9D | V10I (printed as the …))
T1 construct: chromodomain of human Cbx7, UniProt O95931; Cbx7.V1 with residue 33 back to the wild type; source: E. coli BL21(DE3), purified (Ni-NTA)
T1 sequence: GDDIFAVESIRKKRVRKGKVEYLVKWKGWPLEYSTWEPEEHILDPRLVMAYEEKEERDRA
test_details: BLI; biotinylated peptides immobilised on streptavidin biosensor tips (Octet HTX); chromodomains in solution at 5 or 1 µM; 25 °C; 25 mM HEPES pH 7.0, 150 mM NaCl, 1 mg/ml BSA, 0.01% Tween-20; steady-state fit, Langmuir model
assay_setup: both partners purified
measure: Kd (µM)
Entry rule: numbers only, all in µM.

Lookup result for ARTKQTARKSTGGKAPR (trimethyl-lysine at K9; biotin followed by an aminohexanoic acid linker at the N-terminus) [H3K9me3 peptide, N-terminal biotin] ; measured Kd: 10
